Target: apTKRPR-B (Aplysia californica, UniProt A0AAU7STS1)
Sequence (A0AAU7STS1 1-447): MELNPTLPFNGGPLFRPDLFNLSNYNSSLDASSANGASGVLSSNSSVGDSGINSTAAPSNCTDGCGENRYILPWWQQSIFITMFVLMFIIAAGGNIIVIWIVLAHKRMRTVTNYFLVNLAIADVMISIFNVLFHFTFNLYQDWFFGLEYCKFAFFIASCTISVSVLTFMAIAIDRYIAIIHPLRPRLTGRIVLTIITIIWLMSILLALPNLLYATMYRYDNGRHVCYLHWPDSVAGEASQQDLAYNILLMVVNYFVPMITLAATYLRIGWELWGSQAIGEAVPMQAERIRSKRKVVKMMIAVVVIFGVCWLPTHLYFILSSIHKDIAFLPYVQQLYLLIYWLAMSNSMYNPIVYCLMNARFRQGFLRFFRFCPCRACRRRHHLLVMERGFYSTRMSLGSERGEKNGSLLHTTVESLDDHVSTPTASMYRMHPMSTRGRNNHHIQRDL
Assay: IP1 accumulation assay, CHO-K1 cells transiently expressing apTKRPR-B
Format: cell-based
Non-standard residues stand in square brackets, D forms with d. Residues, ends and D or L forms follow the SMILES beside them. pGlu = O=C1CC[C@@H](C(=O)O)N1
Overview of recorded pEC50 for various compounds
# pEC50: negative log10 of molar concentration; output just the value

Some compounds with recorded pEC50:
>>> obs_value("CC(C)C[C@H](NC(=O)[C@H](Cc1c[nH]cn1)NC(=O)[C@@H]1CCCN1C(=O)[C@@H]1CCC(=O)N1)C(=O)NCC(=O)N[C@@H](Cc1ccccc1)C(=O)N[C@@H](Cc1c[nH]cn1)C(=O)NCC(=O)N[C@@H](CO)C(=O)N[C@@H](CCCNC(=N)N)C(N)=O [apTKRP-2b] ([pGlu]PHLGFHGSR-NH2)")
8.27
>>> obs_value("CC(C)C[C@H](NC(=O)[C@H](Cc1c[nH]cn1)NC(=O)[C@@H]1CCCN1C(=O)[C@@H]1CCC(=O)N1)C(=O)N[C@@H](C)C(=O)N[C@@H](Cc1ccccc1)C(=O)N[C@@H](Cc1c[nH]cn1)C(=O)NCC(=O)N[C@@H](CO)C(=O)N[C@@H](CCCNC(=N)N)C(N)=O [[Ala^5]apTKRP-2b] ([pGlu]PHLAFHGSR-NH2)")
6.27

Measured pEC50 of CC(C)C[C@H](NC(=O)[C@H](C)NC(=O)[C@@H]1CCCN1C(=O)[C@@H]1CCC(=O)N1)C(=O)NCC(=O)N[C@@H](Cc1ccccc1)C(=O)N[C@@H](Cc1c[nH]cn1)C(=O)NCC(=O)N[C@@H](CO)C(=O)N[C@@H](CCCNC(=N)N)C(N)=O [[Ala^3]apTKRP-2b] ([pGlu]PALGFHGSR-NH2) : 7.49

----------
Overview of recorded EC50 for various molecules
biological target: apTKRPR-B (Aplysia californica); test: IP1 accumulation assay, CHO-K1 cells transiently expressing apTKRPR-B; assay type: cell-based
Non-standard residues stand in square brackets, D forms with d. Residues, ends and D or L forms follow the SMILES beside them. pGlu = O=C1CC[C@@H](C(=O)O)N1
Answer with a number only, understood to be in nM.

Some molecules with recorded EC50:
>>> obs_value("CC(C)C[C@H](NC(=O)[C@H](Cc1c[nH]cn1)NC(=O)[C@@H]1CCCN1C(=O)[C@@H]1CCC(=O)N1)C(=O)NCC(=O)N[C@@H](C)C(=O)N[C@@H](Cc1c[nH]cn1)C(=O)NCC(=O)N[C@@H](CO)C(=O)N[C@@H](CCCNC(=N)N)C(N)=O [[Ala^6]apTKRP-2b] ([pGlu]PHLGAHGSR-NH2)")
537
>>> obs_value("C[C@H](NC(=O)[C@H](Cc1c[nH]cn1)NC(=O)[C@@H]1CCCN1C(=O)[C@@H]1CCC(=O)N1)C(=O)NCC(=O)N[C@@H](Cc1ccccc1)C(=O)N[C@@H](Cc1c[nH]cn1)C(=O)NCC(=O)N[C@@H](CO)C(=O)N[C@@H](CCCNC(=N)N)C(N)=O [[Ala^4]apTKRP-2b] ([pGlu]PHAGFHGSR-NH2)")
1.7

We now examine a further molecule.
Log: apTKRPR-B (Aplysia californica), molecule CC(C)C[C@H](NC(=O)[C@H](Cc1c[nH]cn1)NC(=O)[C@H](C)NC(=O)[C@@H]1CCC(=O)N1)C(=O)NCC(=O)N[C@@H](Cc1ccccc1)C(=O)N[C@@H](Cc1c[nH]cn1)C(=O)NCC(=O)N[C@@H](CO)C(=O)N[C@@H](CCCNC(=N)N)C(N)=O [[Ala^2]apTKRP-2b] ([pGlu]AHLGFHGSR-NH2) , EC50 = 33.1

The reported measurements were obtained from paper PMC11365428.
